# measurement-protocol: Acute toxicity (DL50), mouse
# condition-notes: in vivo, iv, sole administration, seven days observation
Give LD50 at 168 h for every item shown.
Answers are plain numbers, in mg/kg.

# compound, LD50 at 168 h / mg/kg
data = [
    ("COc1ccc(C(=O)NCc2cccnc2)cc1C(=O)NCc1cccnc1 [Picotamide monohydrate, reference compound]", 275),
]

Proceed to the following item.
Ask | LD50 at 168 h lookup needed for COc1ccc(C(N)=O)cc1C(=O)NCc1cccnc1 , thanks.
Reply | 400

Recorded values, source patent US4698354A.
